Every entry's value here was drawn from patent US20090004694A1.

- Test system: L-rhamnose isomerase derived from Bacillus pallidus strain 14a (IPOD FERM AP-20172)
- ASSAY_COMMENT: Substrate specificity (relative activity) of the purified enzyme, cysteine-carbazole method
- Assay type: biochemical
- STUDY_CONDITIONS: activity against L-rhamnose assumed to be 100%; 50° C., 10 minutes, glycine-NaOH buffer pH 9.0
READOUT_LABEL: Enzyme derived from B. Pallidus (relative activity %)
# unit: % | format: bare number

Assign Enzyme derived from B. Pallidus (relative activity %) to the following record: O=C[C@H](O)[C@H](O)[C@@H](O)[C@@H](O)CO
11

Assign Enzyme derived from B. Pallidus (relative activity %) to the following record: C[C@H](O)[C@H](O)[C@@H](O)[C@@H](O)C=O
100

Assign Enzyme derived from B. Pallidus (relative activity %) to the following record: O=C[C@@H](O)[C@@H](O)[C@H](O)CO
0.14

Assign Enzyme derived from B. Pallidus (relative activity %) to the following record: O=C[C@H](O)[C@H](O)[C@@H](O)CO
23.9

----------
- System: L-rhamnose isomerase produced by Pseudomonas stutzeri LL172 (IPOD FERM BP-08593)
- ASSAY_COMMENT: Substrate specificity (relative activity) of the purified enzyme, cysteine-carbazole method
- Type: biochemical
- STUDY_CONDITIONS: activity against L-rhamnose assumed to be 100%; 50° C., 10 minutes, glycine-NaOH buffer pH 9.0
- Method: The method for measuring the substrate specificity (relative activity (%)) will be described. A reaction solution having a composition of 50 μl of the purified enzyme solution, 50 μl of 0.05 M of each substrate sugar, 50 μl of 0.01 M manganese chloride and 0.05 M glycine-NaOH buffer (pH 9.0) was used. The reaction was carried out at a reaction temperature of 50° C. for 10 minutes. […]
READOUT_LABEL: Enzyme derived from P stutzeri (relative activity %)
# unit: % | format: bare number

Provide Enzyme derived from P stutzeri (relative activity %), recorded with L-rhamnose isomerase produced by Pseudomonas stutzeri LL172 (IPOD FERM BP-08593), of O=C[C@@H](O)[C@@H](O)[C@H](O)CO [D-lyxose]
0.006

Provide Enzyme derived from P stutzeri (relative activity %), recorded with L-rhamnose isomerase produced by Pseudomonas stutzeri LL172 (IPOD FERM BP-08593), of O=C[C@H](O)[C@H](O)[C@H](O)[C@H](O)CO [D-allose]
7.2

Provide Enzyme derived from P stutzeri (relative activity %), recorded with L-rhamnose isomerase produced by Pseudomonas stutzeri LL172 (IPOD FERM BP-08593), of O=C[C@H](O)[C@H](O)[C@@H](O)[C@@H](O)CO [L-mannose]
33.4

Provide Enzyme derived from P stutzeri (relative activity %), recorded with L-rhamnose isomerase produced by Pseudomonas stutzeri LL172 (IPOD FERM BP-08593), of C[C@H](O)[C@H](O)[C@@H](O)[C@@H](O)C=O [L-rhamnose]
100
